Target: T1, human SEMA4D, full length, on CHO-K1 cells (CHO-K1 hSEMA4D) (human, UniProt Q92854 22-862)
T1 construct: whole, on cells; also called human SEMA4D recombinant cells
T1 sequence (looked up): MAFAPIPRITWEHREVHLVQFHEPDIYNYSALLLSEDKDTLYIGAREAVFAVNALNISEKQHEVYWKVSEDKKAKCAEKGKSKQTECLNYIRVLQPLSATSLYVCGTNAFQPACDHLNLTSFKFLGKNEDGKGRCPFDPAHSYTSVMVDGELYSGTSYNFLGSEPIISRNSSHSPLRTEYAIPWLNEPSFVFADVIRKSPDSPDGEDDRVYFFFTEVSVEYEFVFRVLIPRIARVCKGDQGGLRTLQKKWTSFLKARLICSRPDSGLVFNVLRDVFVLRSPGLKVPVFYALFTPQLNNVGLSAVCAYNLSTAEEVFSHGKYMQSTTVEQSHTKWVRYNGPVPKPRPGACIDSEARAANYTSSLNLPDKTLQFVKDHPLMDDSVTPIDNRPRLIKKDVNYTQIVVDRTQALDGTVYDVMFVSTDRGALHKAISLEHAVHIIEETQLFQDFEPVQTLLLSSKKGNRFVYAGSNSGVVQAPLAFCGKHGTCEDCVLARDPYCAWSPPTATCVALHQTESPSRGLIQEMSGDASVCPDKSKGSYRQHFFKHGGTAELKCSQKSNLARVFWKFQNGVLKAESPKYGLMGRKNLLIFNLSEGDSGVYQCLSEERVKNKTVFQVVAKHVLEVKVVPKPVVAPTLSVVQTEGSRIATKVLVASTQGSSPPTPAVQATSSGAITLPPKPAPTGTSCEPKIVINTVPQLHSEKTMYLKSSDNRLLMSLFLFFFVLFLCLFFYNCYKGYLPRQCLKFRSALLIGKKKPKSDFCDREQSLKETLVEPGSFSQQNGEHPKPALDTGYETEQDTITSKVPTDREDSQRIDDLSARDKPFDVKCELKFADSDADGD
Experiment: FACS, CHO-K1 hSEMA4D cells; Ab 0.534 nM
Quick reference for MFI among some binders
measurement_type: MFI

[[record]]
binder = "38H2E3 (antibody, V domains shown, Mouse monoclonal antibody purified from hybridoma supernatant on protein A) VH: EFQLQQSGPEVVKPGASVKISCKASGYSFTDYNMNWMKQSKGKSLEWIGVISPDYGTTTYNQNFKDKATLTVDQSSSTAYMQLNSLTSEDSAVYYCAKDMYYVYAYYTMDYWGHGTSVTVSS VL: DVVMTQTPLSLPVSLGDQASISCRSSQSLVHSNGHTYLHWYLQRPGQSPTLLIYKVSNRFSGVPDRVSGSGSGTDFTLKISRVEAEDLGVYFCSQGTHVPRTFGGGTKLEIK"
recorded_value = 763

[[record]]
binder = "37C4F7 (antibody, V domains shown, Mouse monoclonal antibody purified from hybridoma supernatant on protein A) VH: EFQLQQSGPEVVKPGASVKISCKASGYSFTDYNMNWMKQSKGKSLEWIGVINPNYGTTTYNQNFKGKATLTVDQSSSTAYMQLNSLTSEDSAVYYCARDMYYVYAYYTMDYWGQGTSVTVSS VL: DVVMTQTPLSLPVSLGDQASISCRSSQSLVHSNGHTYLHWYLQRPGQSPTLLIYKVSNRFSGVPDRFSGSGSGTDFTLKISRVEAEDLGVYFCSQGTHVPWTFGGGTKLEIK"
recorded_value = 738

[[record]]
binder = "37F11F9 (antibody, V domains shown, Mouse monoclonal antibody purified from hybridoma supernatant on protein A) VH: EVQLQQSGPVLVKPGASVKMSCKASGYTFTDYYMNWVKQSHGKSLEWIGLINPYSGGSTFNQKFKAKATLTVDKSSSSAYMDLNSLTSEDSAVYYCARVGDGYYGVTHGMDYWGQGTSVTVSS VL: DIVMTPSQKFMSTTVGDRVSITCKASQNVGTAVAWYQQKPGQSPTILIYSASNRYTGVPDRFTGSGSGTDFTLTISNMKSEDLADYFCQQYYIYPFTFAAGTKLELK"
recorded_value = 1120

[[record]]
binder = "42B7G2 (antibody, V domains shown, Mouse monoclonal antibody purified from hybridoma supernatant on protein A) VH: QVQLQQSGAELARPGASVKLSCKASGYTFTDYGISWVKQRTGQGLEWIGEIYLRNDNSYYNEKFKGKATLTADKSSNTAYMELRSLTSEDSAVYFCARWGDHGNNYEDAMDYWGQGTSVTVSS VL: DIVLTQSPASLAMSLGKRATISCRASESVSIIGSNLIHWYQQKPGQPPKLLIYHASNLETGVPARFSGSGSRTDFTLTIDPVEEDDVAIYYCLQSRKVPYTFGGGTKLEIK"
recorded_value = 2000

[[record]]
binder = "32C8F10 (antibody, V domains shown, Mouse monoclonal antibody purified from hybridoma supernatant on protein A) VH: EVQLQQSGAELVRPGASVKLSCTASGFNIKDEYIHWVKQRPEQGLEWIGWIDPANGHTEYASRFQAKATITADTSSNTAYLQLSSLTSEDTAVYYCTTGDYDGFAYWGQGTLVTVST VL: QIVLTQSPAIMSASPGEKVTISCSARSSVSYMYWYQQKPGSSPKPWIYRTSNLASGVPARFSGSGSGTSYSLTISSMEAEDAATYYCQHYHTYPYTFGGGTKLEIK"
recorded_value = 2920

